Tested on: 323965-272-R-J2-PDC complex spheroid viability
experimentalDetails: Anticancer human tumor 323965-272-R-J2-PDC patient-derived pancreatic carcinoma cell line growth inhibition [CLK]
testSettings: curve of first compound; second compound 0.316 µM
readoutName: pIC50
Formally, pIC50 is defined as -log10 of the concentration c, with c in mol/L.

For the compound CCc1c2c(nc3ccc(O)cc13)-c1cc3c(c(=O)n1C2)COC(=O)[C@]3(O)CC + CNC(=O)c1ccc(Nc2nc(OC3CCCC3)c3c(-c4ccc5nc(C)oc5c4)c[nH]c3n2)c(OC)c1 , what pIC50 is on record?
8.38

I have this compound here, C#Cc1c(F)ccc2cc(O)cc(-c3ncc4c(N5CC6CCC(C5)N6)nc(OCC56CCCN5CC(F)C6)nc4c3F)c12 (stereo not given) + CNC(=O)c1ccc(Nc2nc(OC3CCCC3)c3c(-c4ccc5nc(C)oc5c4)c[nH]c3n2)c(OC)c1 , and I need its recorded pIC50.
6.20

What pIC50 value was documented for this compound, NC(=O)C(=Cn1cnc(-c2cc(C(F)(F)F)cc(C(F)(F)F)c2)n1)c1cncnc1 + CNC(=O)c1ccc(Nc2nc(OC3CCCC3)c3c(-c4ccc5nc(C)oc5c4)c[nH]c3n2)c(OC)c1 ?
6.18

Can you look up the measured pIC50 of CC(Nc1ccc2c(c1)OCCn1cc(N3C(=O)OCC3C(F)F)nc1-2)C(N)=O (stereo not given) + CNC(=O)c1ccc(Nc2nc(OC3CCCC3)c3c(-c4ccc5nc(C)oc5c4)c[nH]c3n2)c(OC)c1 for me?
6.54

###

Below, each entry is listed alongside its reported viability, T/C.
Tested on: 323965-272-R-J2-PDC complex spheroid viability
experimentalDetails: Anticancer human tumor 323965-272-R-J2-PDC cell line growth inhibition [CLK];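 also: spheroids exposed to agents for seven days before readout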;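 as to viability, T/C: percent of DMSO vehicle control wells so 100% = untreated growth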
testSettings: second compound 0.1 µM; first compound 0.1 µM; stronger effect = lower value
Value expressed in %; do not type the unit.

compound="O=c1[nH]cc(F)c(=O)[nH]1 + CN1CCN(c2cc(C(=O)Nc3cc4cc(-c5cnn(C)c5)ccc4cn3)ccn2)CC1" u=% observedvalue=85.4
compound="CC1COCCN1c1cc(C2(S(C)(=N)=O)CC2)nc(-c2ccnc3[nH]ccc23)n1 (stereo unspecified) + CN1CCN(c2cc(C(=O)Nc3cc4cc(-c5cnn(C)c5)ccc4cn3)ccn2)CC1" u=% observedvalue=77.2

Returns the measured viability, T/C for the input compound. Input: C#Cc1c(F)ccc2cc(O)cc(-c3ncc4c(N5CC6CCC(C5)N6)nc(OCC56CCCN5CC(F)C6)nc4c3F)c12 (stereo unspecified) + CN1CCN(c2cc(C(=O)Nc3cc4cc(-c5cnn(C)c5)ccc4cn3)ccn2)CC1
73.2

Look at this compound and give its reported viability, T/C. CC(=O)O[C@H]1C(=O)[C@@]2(C)[C@H]([C@H](OC(=O)c3ccccc3)[C@]3(O)C[C@H](OC(=O)[C@H](O)[C@@H](NC(=O)c4ccccc4)c4ccccc4)C(C)=C1C3(C)C)[C@]1(OC(C)=O)CO[C@@H]1C[C@@H]2O + CN1CCN(c2cc(C(=O)Nc3cc4cc(-c5cnn(C)c5)ccc4cn3)ccn2)CC1
28.1

What does the record list as viability, T/C for COC1C=CCC(C)C(C)S(=O)(=O)NC(=O)c2ccc3c(c2)N(CC2CCC21)CC1(CCCc2cc(Cl)ccc21)CO3 (stereo unspecified) + CN1CCN(c2cc(C(=O)Nc3cc4cc(-c5cnn(C)c5)ccc4cn3)ccn2)CC1 ?
67

Name the reported viability, T/C value associated with the compound C=C(F)C(=O)N1CCN(c2nc(OCC3CCCN3C)nc3c2CCN(c2cccc4cccc(Cl)c24)C3)CC1CC#N (stereo unspecified) + CNC(=O)c1ccc(Nc2nc(OC3CCCC3)c3c(-c4ccc5nc(C)oc5c4)c[nH]c3n2)c(OC)c1
40.4
